Hello, the source for this data is the antibiotic and cytotoxicity screens of Wong et al. (2023), in case you need it.

Test system: HepG2
Assay: cytotoxicity call (relative viability < 0.9)
Conditions: 10 µM
The whole screen tested about 39,000 compounds, of which about 3,300 (8.5%) were called active. This is one part of a sample in which actives are shown more often than they occur.
Select the matching outcome among class 1 for active, class 0 for inactive

Here are 6 compounds together with their reported answers.
[
  {
    "compound": "O=C(CCCCCCC(=O)Nc1ccc([C@H]2C[C@H](c3ccccc3)O[C@H](c3ccccc3)O2)cc1)NO",
    "label": "class 0"
  },
  {
    "compound": "C[C@@H]1CN([C@H](C)CO)C(=O)c2ccccc2-c2ccccc2CO[C@H]1CN(C)C(=O)c1cc(Cl)cc(Cl)c1",
    "label": "class 0"
  },
  {
    "compound": "O=C(CCCCCCC(=O)Nc1ccccc1)NO",
    "label": "class 1"
  },
  {
    "compound": "CCCNc1nc(Nc2ccc(C#N)cc2)ncc1C#CCCCNC(=O)[C@H](C)N(C)C(=O)/C=C/CN(C)C",
    "label": "class 1"
  },
  {
    "compound": "C[C@H](CO)N1C[C@H](C)[C@H](CN(C)C(=O)Nc2ccccc2)Oc2ccc(NC(=O)CCN3CCOCC3)cc2CC1=O",
    "label": "class 0"
  },
  {
    "compound": "C[C@@H]1CCCCO[C@H](CN(C)Cc2ccc(C(=O)O)cc2)[C@@H](C)CN([C@H](C)CO)C(=O)c2cc(NC(=O)C3CCCCC3)ccc2O1",
    "label": "class 0"
  }
]

Any idea what this test logged for "C[C@@H]1CN([C@H](C)CO)C(=O)c2cc(NC(=O)CCCN(C)C)ccc2O[C@@H]1CN(C)S(=O)(=O)c1cccs1" ?
class 0

So what was the verdict on "O=C(CCCCCCC(=O)NO)NO" in this test?
class 0

Which outcome did this test record for the compound "COc1ccc(NC(=O)Nc2ccc3c(c2)C(=O)N([C@H](C)CO)C[C@@H](C)[C@H](CN(C)C(=O)Nc2ccc4c(c2)OCO4)OCCCC[C@@H](C)O3)cc1" ?
class 0

So what was the verdict on "C=CCC[C@@H](Cc1ccc(F)cc1)C(=O)OC[C@@H]1CCCN1C(=O)[C@H](CC=C)CC(=O)N(CCO)Cc1ccccc1" in this test?
class 0

Dear colleague, could you share the recorded outcome for CC(C)(C)NCC(O)COc1cccc2c1CC(O)C(O)C2 (stereo unspecified) when you have a moment?
class 0

Please let me know the test result on file for "Cc1noc(C)c1S(=O)(=O)N(C)C[C@@H]1OCc2cn(nn2)CCCC(=O)N([C@@H](C)CO)C[C@H]1C" .
class 0

Hi, sorry to bother you, what did the test record for "C[C@@H]1CN([C@H](C)CO)C(=O)c2cc(NC(=O)C3CC3)ccc2O[C@H]1CN(C)C(=O)Nc1ccc2c(c1)OCO2" ?
class 0

Which outcome did this test record for the compound "CCc1nc2ccc(C(=O)N3CCN(C(=O)c4ccco4)CC3)cn2c1N(C)C(=O)COc1ccccc1" ?
class 0

Answer briefly: the call reported for "O=C1O[C@H](c2ccccc2)[C@H](c2ccccc2)N2[C@H]1[C@@H](C(=O)O)[C@]1(C(=O)Nc3ccc(Cl)cc31)[C@H]2c1ccc(F)cc1" in this assay.
class 0

Hi, do you know how "CCc1nc2c(OCC(=O)c3ccc(Cl)cc3Cl)cccn2c1N(C=O)Cc1ccc(OC)cc1" came out in this test?
class 0

Record request — test call for "COc1ccc(NC(=O)Nc2ccc3c(c2)C(=O)N([C@@H](C)CO)C[C@@H](C)[C@@H](CN(C)Cc2ccc(Cl)c(Cl)c2)O3)cc1"
class 0

How did this test come out for "CCc1nc2c(OCC(=O)c3ccc(Cl)cc3Cl)cccn2c1N(C)C(=O)COc1ccccc1" ?
class 1

In this assay, the call recorded for "Cc1ccc(S(=O)(=O)Nc2ccc3c(c2)C(=O)N([C@H](C)CO)C[C@H](C)[C@@H](CN(C)S(=O)(=O)c2ccc(F)cc2)OCCCC[C@@H](C)O3)cc1" was what?
class 0

Just curious, what result did "Brc1cccc2ocnc12" get here?
class 0

Lab log entry: "COc1ccc(NC(=O)Nc2ccc3c(c2)C(=O)N([C@H](C)CO)C[C@H](C)[C@@H](CN(C)Cc2ccc(Cl)c(Cl)c2)O3)cc1" — outcome as called in the assay?
class 0

----------
Tested on: HepG2
Assay: cytotoxicity call (relative viability < 0.9)
Conditions: 10 µM
Hit rate of the full screen: of about 39,000 compounds, about 3,300 (8.5%) were called active. For the sample, actives were picked, then their nearest neighbours and some compounds at random.
Please answer using one outcome listed in active, inactive

Below are worked cases with known answers.
[
  {
    "structure as smiles": "Cc1c(N2CCCC2)cc2c(c1-n1cccc1)C(C)(C)CC2(C)C",
    "label": "inactive"
  },
  {
    "structure as smiles": "CCCN(C)C[C@@H]1OCCCC[C@@H](C)Oc2ccc(NS(=O)(=O)c3ccc(Cl)cc3)cc2C(=O)N([C@H](C)CO)C[C@@H]1C",
    "label": "inactive"
  },
  {
    "structure as smiles": "C[C@H](CO)N1C[C@H](C)[C@@H](CN(C)C(=O)Nc2ccccc2)Oc2ccc(NC(=O)Cn3cnnn3)cc2C1=O",
    "label": "inactive"
  }
]

Dear all, I need the recorded test outcome for "CO[C@H]1CN(C)C(=O)c2cc(NS(=O)(=O)c3cn(C)cn3)ccc2OC[C@H](C)N(CC2CC2)C[C@H]1C" , thank you.
inactive

Each molecule tested received a call. Report the one for "CNC[C@@H]1Oc2ccc(NC(=O)Cn3cnnn3)cc2CC(=O)N([C@@H](C)CO)C[C@H]1C" .
active

For "C[C@@H]1CN([C@@H](C)CO)C(=O)c2cccc(NC(=O)Nc3ccccc3)c2O[C@H]1CN(C)Cc1ccc(-c2ccccc2)cc1" , which call appears in the assay record?
inactive

// return assay outcome for "C[C@H]1CN([C@@H](C)CO)C(=O)c2cccc(NC(=O)Nc3ccc(F)cc3)c2O[C@H]1CN(C)Cc1ccc(-c2ccccc2)cc1"
inactive

Test call for this molecule, please: "CNC[C@@H]1Oc2ccc(NC(=O)Cn3cnnn3)cc2CC(=O)N([C@@H](C)CO)C[C@@H]1C"
inactive

Dear colleague, could you share the recorded outcome for "N=C(N)N1CCc2ccccc2C1.O=S(=O)(O)O" when you have a moment?
inactive

Returns: the outcome recorded for "C[C@@H]1CN([C@@H](C)CO)C(=O)c2cc(NC(=O)Cn3cnnn3)ccc2O[C@H]1CN(C)C(=O)Nc1cccc2ccccc12" in this assay.
inactive

----------
Test system: HepG2
Test: cytotoxicity call (relative viability < 0.9)
Settings: 10 µM
In all, about 39,000 compounds went through this assay and about 3,300 (8.5%) were called active. The list comes from a sample in which actives are over-represented; it also holds close analogues and randomly drawn compounds.
Thanks in advance; please answer with one of these: 1 (yes) for active, 0 (no) for inactive

[
  {
    "compound": "O=c1ccn([C@@H]2O[C@H](CO)[C@@H](O)[C@H]2O)c(=O)[nH]1",
    "test target": "HepG2",
    "label": "0 (no)"
  },
  {
    "compound": "O=c1ccn([C@H]2O[C@H](CO)[C@@H](O)[C@@H]2O)c(=S)[nH]1",
    "test target": "HepG2",
    "label": "1 (yes)"
  },
  {
    "compound": "C[C@@H]1CN([C@@H](C)CO)C(=O)c2cc(NC(=O)Nc3ccc(F)cc3)ccc2O[C@@H](C)CCCCO[C@H]1CN(C)Cc1ccccc1",
    "test target": "HepG2",
    "label": "1 (yes)"
  },
  {
    "compound": "Nc1c(C(=O)O)cnc2nc(N3CCOCC3)nn12",
    "test target": "HepG2",
    "label": "0 (no)"
  },
  {
    "compound": "C[C@H]1CCCCO[C@@H](CN(C)Cc2ccncc2)[C@@H](C)CN([C@@H](C)CO)C(=O)c2cc(NC(=O)Nc3ccccc3)ccc2O1",
    "test target": "HepG2",
    "label": "0 (no)"
  },
  {
    "compound": "O=c1ccn(C2OC(CO)C(O)C2O)c(=O)[nH]1 (stereo not drawn)",
    "test target": "HepG2",
    "label": "0 (no)"
  }
]

Record request — test call for "C[C@@H]1CN([C@@H](C)CO)C(=O)c2cc(-c3cncnc3)cnc2O[C@H]1CN(C)C(=O)Nc1ccc2c(c1)OCO2"
0 (no)

Dear colleague, could you share the recorded outcome for "C[C@H](CO)N1C[C@H](C)[C@H](CN(C)S(=O)(=O)c2ccc(F)cc2)Oc2ccc(NC(=O)c3ccncc3)cc2CC1=O" when you have a moment?
0 (no)

----------
Tested on: HepG2
Assay: cytotoxicity call (relative viability < 0.9)
Settings: 10 µM
The campaign covered roughly 39,000 compounds. About 3,300 (8.5%) were called active. The list comes from a sample in which actives are over-represented; it also holds close analogues and randomly drawn compounds.
Assign a class; possible classes are yes (1) = active, no (0) = inactive

What was the test verdict on "C[C@@H]1CN([C@H](C)CO)C(=O)c2c(c3ccccc3n2C)-c2ccccc2CO[C@H]1CN(C)Cc1cccc(O)c1" ?
no (0)

For this molecule, state the assay outcome: "Cc1noc(C)c1NC(=O)Nc1cccc2c1O[C@@H](CN(C)Cc1ccc(C(=O)Nc3ccccc3N)cc1)[C@@H](C)CN([C@H](C)CO)C2=O"
no (0)

Called result for "C[C@@H]1CCCCO[C@H](CN(C)C(=O)Nc2ccccc2)[C@H](C)CN([C@@H](C)CO)C(=O)c2cc(NS(=O)(=O)c3ccc(Cl)cc3)ccc2O1"
no (0)

Please let me know the test result on file for "CN(C)CC(=O)N1CC2(C1)[C@@H](c1ccccc1)[C@@H](CO)N2S(C)(=O)=O" .
no (0)

Record request — test call for "Cc1ccc(S(=O)(=O)Nc2ccc3c(c2)C(=O)N([C@@H](C)CO)C[C@H](C)[C@H](CN(C)S(=O)(=O)c2ccc(C)cc2)OCCCC[C@H](C)O3)cc1"
yes (1)

Dear all, I need the recorded test outcome for "CC(C)CC#Cc1ccc2c(c1)O[C@H](CN(C)C(=O)c1ccccn1)[C@@H](C)CN([C@@H](C)CO)S2(=O)=O" , thank you.
no (0)

For "CC(C)NC(=O)Nc1ccc2c(c1)CC(=O)N([C@H](C)CO)C[C@H](C)[C@@H](CN(C)Cc1ccc(Oc3ccccc3)cc1)O2" , what call appears in the results of this test?
no (0)
